Source: the supplement of paper PMC9732359

Answer each item with its documented protein stability index.
experiment: protein stability index of a GFP-peptide fusion (yeast GPS) (PSI 1-4); higher = more stable; sorted into four equal gates, so the index is relative within each strain; conditions: san1∆
One number for each entry.

As a guide, the following entries are already answered.
EANFDLINIDTSIANAF [RPC40] | 3
SGNEMPPQDAEGWFYKR [RPS19A] | 3.25
INELVLENFKSYAGKQV [SMC4] | 2.39
DLTRVYKAISAQADKQD [FAS2] | 1.74
AVSIETALEHKVVNGNS [FAS2] | 1.34
NVKNYSTTQEILEFITA [RPC34] | 1.18
YTDRDQDEVNKGPAIDE [NNF1] | 1.89
VNYRHFKAMEDVIAWKN [ITC1] | 3.27
AIQKKDNKDKEGNAGGD [YOR098C/NUP1] | 3.25
IMQEAGLRAVRKNRYVI [RPT3] | 2.91

Record protein stability index for all entries; do not skip any.
1. PGSRASSRFIKGGSLYG [RPN2]
2. NYLLKRNEDARRNLRYG [RPO31]
3. YSNSHQMAVHIATDGGR [RET1]
4. CRVDFKNPHDIIEGINA [RPL12A]

1: 1.45; 2: 3.51; 3: 2.35; 4: 1.83
